System: MS2 coat protein
Assay: apparent Kd, MS2 coat protein; higher = weaker binding; RNA-MaP array; theophylline 2 mM where present
Settings: designed as: ON switch for theophylline; no ligand
Quantity name: apparent Kd (nM)
Supply the numeric figure in nM, leaving out any unit text.

UGUUUGGUGCGCGAGUGUUGGAUAAUUGAUACCAGUGUAGAUGUACGCCCUUGGCAGCGAAUCCGAACAUGAGGAUCACCCAUGU: 32.5
UCUUUCUUUGUAGAUACCAGCGUGUUAUCUUUCUUUUGACAUGAGGAUCACCCAUGUAUAUGCCCUUGGCAGCUACAUAUUCUUU: 18.5
ACUUGGUGGUGAUCCCUGCCAAGAGGUGAUACCAGCAUCGAAAGAUGCCCUUGGCAGCACCAACAUGAGGAUCACCCAUGUAAUA: 156

Request: Returns the measured apparent Kd for the input sequence. Input: ACAAGUCCUCAUGAUACCAGCGAUGAGACAAAGUCUCAACAUGAGGAUCACCCAUGUACUCGCCCUUGGCAGCAUACGGUUUUUG
Response: 415

Request: Request the reported apparent Kd associated with AGUGUUAUAACUGAUACCAGACCUUUGCUUAUACAUGAGGAUCACCCAUGUAAAAUGGCUGUCCCUUGGCAGCAGAGAAUACACA
Response: 46

Request: // query apparent Kd value for entry AUCGUACCUGAUGAUACCAGCAAUUGCUCGUAACAUGAGGAUCACCCAUGUGACCAGUGAUGCCCUUGGCAGCAUGAUCGGUGCA
Response: 53.8

Request: Item ACGACGCAUAGUGAUACCAGUAGAACAUGAGGAUCACCCAUGUCUGUGACGCACAAACUCUGCCCUUGGCAGCACUAUGCGUCAG has what recorded apparent Kd?
Response: 10.8

----------
System: MS2 coat protein
Experiment: apparent Kd, MS2 coat protein; higher = weaker binding; RNA-MaP array
Settings: ligand present: flavin mononucleotide; designed as: OFF switch for flavin mononucleotide
Quantity name: apparent Kd (nM)
Provide the reading as a plain figure in nM.

// below: answered sequences
CCAAAGUAAGGAUAUCGAAGAACCACAACCGACGGAACGAACGAGAAGGUACAUGAGGAUCACCCAUGUGAUAG: 19.7
AAUUGUGCAGGAUAUUCACAGGUGAACAUGAGGAUCACCCAUGUAGCAUGAGGUGUAAUCGAAGAAGGGCAGGUCC: 72.8
CCUUUAGAUGUGAGGAUAUGUACUUGACUUUCAUGACAGAAGGCACAUGAGGAUCACCCAUGUAGUGUCAUUGG: 36.4
UAAUCCAACUCGUAAUGACAUGAGGAUCACCCAUGUGAGCGUGAGGAUAUUGUAAGCUAGGAGGUCAAGAAGGCACGCCAGGAG: 10
GGAUCGCUCUACAUGAGGAUCACCCAUGUGACUGAGCUAGAUAGAAGGAGAUGGCGAAAUACUUUCUAGGAUAUAUUGUAGCUA: 8.08

Request: Tell me the measured apparent Kd of CCCAGGAUUCAAGGAUAUCGCAAUGAACAUGAGGAUCACCCAUGUUUCUACCCCUCAGCGCACGGCGAGAAGGUGACUUUAGCG , please.
Response: 12.3

Request: Given AAAGAACAAGGAUAUACAUGAGGAUCACCCAUGUCACAGAUAGUAGAACCACAAGCAUGUAGAAGGUGAGUCUA , state its recorded apparent Kd.
Response: 9.61

Request: Name the recorded apparent Kd for CCAGAUUUAGGAUAUACAUGAGGAUCACCCAUGUGGGAUUUAGUGCGGUUUAUGCAACGUAGAAGGAAAUCAGG .
Response: 71.4

Cited source: the EternaBench riboswitch data
